test system: T-47D breast; test: NCI-60 one-dose screen, 48 h (100 = growth as untreated, 0 = no growth, -100 = all killed); conditions: 10 µM unless noted
This is part of a sample that, as a whole, favours compounds with a hit. Of some 83,000 tested, about 20% had one in any assay.
Please note: growth exactly at 60% is F. Only values below 60% get T.

Problem: For the compound Cc1nn(-c2ccccc2)c(Cl)c1/C=C/C(=O)c1ccc(F)cc1 , is growth under 60%?
F

Problem: For the compound COc1ccc(/C=N/NC(=O)c2cnn3c2NC(c2ccccc2)C3)cc1OC (stereo not given) , is growth under 60%?
T

Problem: For the compound Cc1cccc(-c2cn3ccnc3c(-c3ccc4ncn(Cc5ccccc5)c4c3)n2)c1 , is growth under 60%?
T

Problem: For the compound COc1ccc(/C=C/C(=O)Nc2cc(/C=C\c3cc(OC)c(OC)c(OC)c3)cc(OC)c2OC)cc1OC , is growth under 60%?
T

----------
tested on: SR leukemia; test: NCI-60 one-dose screen, 48 h; settings: 10 µM unless noted
About 83,000 compounds went through this panel and 20% of them were active in at least one assay; those are over-represented in the sample as a whole. Active and inactive are the calls of the source. Rule for the calls: active = growth percent below 10; inactive = the rest.
Select the correct class. Options are active, inactive and nothing else.

What outcome does the record of this test show for COc1cc(NCCCCCNC(C)(C)C)c2ncccc2c1 ?
inactive

What outcome does the record of this test show for O=C(Nc1ccc(Cl)cc1)c1cc(NCc2cc(O)ccc2O)ccc1O ?
active

What outcome does the record of this test show for CN1CCN(C(=O)[C@]23CCC(C)(C)C[C@H]2C2=CC[C@@H]4[C@@]5(C)C/C(=C/c6cccnc6)C(=O)C(C)(C)[C@@H]5CC[C@@]4(C)[C@]2(C)CC3)CC1 ?
inactive

What outcome does the record of this test show for Cc1cnc(C(=O)Nc2nc3ccc(S(=O)(=O)Nc4ccc(C5(C(F)(F)F)CC5)cc4)cc3[nH]2)cn1 ?
inactive

What outcome does the record of this test show for O=C(CCN1CCCC1)Nc1ccc2c(NCCc3ccccc3)c3ccccc3nc2c1 ?
active

What outcome does the record of this test show for Oc1ccc(C(c2ccc(O)cc2)c2ccc(Br)cn2)cc1 ?
inactive

What outcome does the record of this test show for C=C(CBr)[C@@H]1CC[C@]2(COC(C)=O)CC[C@]3(C)[C@H](CC[C@@H]4[C@@]5(C)CCCNC(C)(C)[C@@H]5CC[C@]43C)[C@@H]12 ?
inactive

What outcome does the record of this test show for O=C(Nc1ccc(F)cc1)Nc1ccc(NC(=O)c2cc(Cl)nc3ccccc23)cc1 ?
inactive

What outcome does the record of this test show for COc1ccc(C(=O)Cn2c(C(=O)c3ccccc3)nc3ccccc32)cc1 ?
inactive

----------
system: HCC-2998 colon; assay: NCI-60 one-dose screen, 48 h; details: 10 µM unless noted
Compounds without any hit were thinned out: in the full panel of roughly 83,000, 20% have a hit. Active and inactive are the calls of the source. Rule for the calls: active = growth percent below 10; inactive = the rest.
Select the correct class. Options are t (active), f (inactive) and nothing else.

What outcome does the record of this test show for CC1(C)CC[C@]23CC[C@]4(C)[C@H](CC[C@@H]5[C@@]6(C)CCCNC(C)(C)[C@@H]6CC[C@]54C)[C@H]2[C@H]1OC3 ?
t

What outcome does the record of this test show for Cc1c(C)c([N+](=O)[O-])c(C)c([N+](=O)[O-])c1C ?
f

What outcome does the record of this test show for COc1ccccc1NS(=O)(=O)c1cccc(C(=O)Nc2ccc(Br)cc2)c1 ?
f

What outcome does the record of this test show for Cc1cnc(C(=O)Nc2nc3ccc(S(=O)(=O)Nc4ccc(C5(C(F)(F)F)CC5)cc4)cc3[nH]2)cn1 ?
f

----------
Test system: BT-549 breast
Experiment: NCI-60 one-dose screen, 48 h (100 = growth as untreated, 0 = no growth, -100 = all killed)
Conditions: 10 µM unless noted
Protocol: Growth inhibition of the BT-549 human tumor cell line is measured as a screen for anti-cancer activity. Cells are grown in 96 well plates and exposed to the test compound for 48 hours. Compounds are tested at a single concentration, which is 10^-5 M for most compounds. The reported endpoint is percent growth (GI% or GIPRCNT), where numbers from 0 - 100% represent growth inhibition, and numbers from -100% - 0 represent cell death. For example, a value of 40 represents 60% growth inhibition. […]
The panel holds about 83,000 compounds, 20% with a hit somewhere; the sample as a whole holds those more often.
Experimental Readout: growth (%)
Entry rule: numbers only, all in %.

Entry CCOC(=O)c1cc(C(=O)c2ccc(OC)c(OC)c2)n2ccc(/C=C/c3cc[n+](CC(=O)c4ccc(OC)c(OC)c4)cc3)cc12 : reported growth = ?
96.6

Entry N#CC(C#N)=Cc1cc2ccccc2nc1Oc1ccc(C(F)(F)F)cc1 : reported growth = ?
96.2

Entry O=S(=O)(NCCNc1nccc(-c2c(-c3cccc(O)c3)nc3occn23)n1)c1ccc(Cl)cc1 : reported growth = ?
116

Entry COc1cc2c(c(OC)c1OC)CCC(c1cccc(NC(=O)c3cccc(Br)c3)c1)O2 (stereo unspecified) : reported growth = ?
103

Entry N#Cc1c(-c2ccccc2)nc2c(c(-c3ccccc3)nn2-c2ccccc2)c1-c1ccc(O)cc1 : reported growth = ?
59.7

Entry COc1ccc(-c2nc(S(=O)(=O)c3ccccc3)c(S(=O)CC(=O)N3CCC(C)CC3)o2)cc1 (stereo unspecified) : reported growth = ?
33.5

Entry O=C1Nc2cc(-c3ccc(NC(=O)c4ccccc4)cc3)ccc2/C1=C/c1ccc[nH]1 : reported growth = ?
89.1

Entry N#CC(C(=O)/C(=N/NC(=O)c1ccccc1O)C(C#N)c1ccccc1)c1ccccc1 (stereo unspecified) : reported growth = ?
44.2

Entry Cc1ccc(C(=O)/C(=C\c2ccc([N+](=O)[O-])cc2)S(=O)Cc2ccc(Cl)cc2)cc1 (stereo unspecified) : reported growth = ?
62

Entry COc1ccc(OC)c(CCn2cncc2-c2c[nH]c3ccccc23)c1 : reported growth = ?
83.8

Entry O=C1Nc2ccccc2/C1=C\c1c(-c2ccc(F)cc2)nc2ccccn12 : reported growth = ?
69.6

Entry CCOC(=O)[C@@H]1CCCN(S(=O)(=O)c2ccc(S(=O)(=O)N(CC)CC)c(F)c2)C1 : reported growth = ?
58.5

Entry Cc1ccc(S(=O)(=O)Nn2c3c(cc(-c4nc5ccccc5s4)c2=O)CCCCCC3)cc1 : reported growth = ?
109

Entry O=C(Nc1ncc(Cc2cc(Cl)ccc2Cl)s1)c1cccs1 : reported growth = ?
74.6

Entry COc1ccc(CNCCN2C(=O)c3ccc4c5c(ccc(c35)C2=O)C(=O)N(CCNCc2ccc(OC)c(OC)c2OC)C4=O)c(OC)c1OC : reported growth = ?
-11.4

Entry Cc1ccc(-n2nc3c(c(C#N)c2=O)CC(c2ccccc2[N+](=O)[O-])C([N+](=O)[O-])=C3O)cc1 (stereo unspecified) : reported growth = ?
93.2

----------
For each record, write down the corresponding growth.
test system: SN12C renal; assay: NCI-60 one-dose screen, 48 h (100 = growth as untreated, 0 = no growth, -100 = all killed); details: 10 µM unless noted
The panel holds about 83,000 compounds, 20% with a hit somewhere; the sample as a whole holds those more often.
Entry rule: numbers only, all in %.

Entry O=S(=O)(NCCNc1nccc(-c2c(-c3cccc(O)c3)nc3occn23)n1)c1ccc(Cl)cc1 : reported growth = ?
100

Entry N/C(=N\C(N)=N\c1nc2ccccc2s1)c1ccnc(Br)c1 : reported growth = ?
40.5

Entry C/C(=N\NC(=O)CSc1nc2ccccc2c(=O)n1CCc1ccc(S(N)(=O)=O)cc1)c1ccccn1 : reported growth = ?
38.5

Entry COCc1cnccc1NC1CCCCCC1 : reported growth = ?
99.4

Entry COc1ccc2[nH]c(=O)c(CN3CCN(c4nccc(-c5ccc(Cl)cc5)n4)CC3)cc2c1 : reported growth = ?
88.8

Entry COc1cccc(-c2nc3occn3c2-c2ccnc(NCCNS(=O)(=O)c3ccc(C(F)(F)F)cc3)n2)c1 : reported growth = ?
88.6

Entry CCCNC(=O)Oc1ccc(/C(=C(\C)c2ccccc2)c2ccc(OCCCN(C)C)cc2)cc1 : reported growth = ?
77.4

Entry COc1cc2c(=O)n(CCN)c3c4cc5c(cc4ccc3c2cc1OC)OCO5 : reported growth = ?
-69.3

Entry COc1ccc(C(=O)CSc2nc(-c3cc(OC)ccc3OC)cc(-c3ccc(Cl)cc3)c2C#N)cc1 : reported growth = ?
42.6

Entry C=C(C)[C@@H]1CC[C@]2(C(=O)N[C@H](CO)Cc3ccccc3)CC[C@]3(C)[C@H](CC[C@@H]4[C@@]5(C)CCCNC(C)(C)[C@@H]5CC[C@]43C)[C@@H]12 : reported growth = ?
-83.3

Entry O=C(Cc1ccccc1)NNc1nc(Cl)nc(N2CCN(C(c3ccccc3)c3ccccc3)CC2)n1 : reported growth = ?
97.1

Entry Cn1c(-c2c(N)n(CCCN3CCOCC3)c3nc(C#N)c(C#N)nc23)nc2ccccc21 : reported growth = ?
40.5

Entry CCCCCCCCCCCCCCCC[N+]1(C)CCN(SN2CC[N+](C)(CCCCCCCCCCCCCCCC)CC2)CC1 : reported growth = ?
72.5

Entry COc1cc(C2C3=C(COC3=O)N(CCO)c3cc4c(cc32)OCO4)cc(OC)c1OC (configuration not stated) : reported growth = ?
16.8

Entry COc1ccc(/C=C(\C#N)n2nc3cccc(F)c3n2)cc1 : reported growth = ?
104

Entry COc1ccc(/C=N/NC(=O)c2cnn3c2NC(c2ccccc2)C3)cc1OC (configuration not stated) : reported growth = ?
81.8

Entry CC(=O)[C@H]1CCC/C=C/[C@@H]2C[C@H](O)C[C@H]2[C@H](O)/C=C/C(=O)O1 : reported growth = ?
9.7

Entry C/C(=N\NC(=O)CSc1nc2ccccc2c(=O)n1Cc1ccc(S(N)(=O)=O)cc1)c1ccc(F)cc1 : reported growth = ?
101

Entry O=C(Nc1ccc(F)cc1)Nc1ccc(NC(=O)c2cc(Cl)nc3ccccc23)cc1 : reported growth = ?
73.6

Entry O=S(=O)(NCCNc1nccc(-c2c(-c3cccc(F)c3)nc3sccn23)n1)c1ccc(Br)cc1 : reported growth = ?
42.9

Entry O=C(c1nc2ccccc2[nH]1)C1C(c2ccc(Br)cc2)C2CC3CCCC[C@H]3N2[C@@]12C(=O)Nc1cc(Cl)ccc12 (some centres not stated) : reported growth = ?
39.7

Entry Cc1ccc(CNc2c3ccccc3nc3cc(NC(=O)CCN4CCCC4)ccc23)cc1 : reported growth = ?
2.87

Entry CCOC(=O)c1cc(C(=O)c2ccc(OC)c(OC)c2)n2ccc(/C=C/c3cc[n+](CC(=O)c4ccc(OC)c(OC)c4)cc3)cc12 : reported growth = ?
86.8

Entry O=C(Cc1ccc(/C=C/C(=O)c2nccs2)cc1)Nc1ccccc1 : reported growth = ?
91.9

Entry CC(=O)CCC(=O)OCc1cc(=O)c(O)co1 : reported growth = ?
104

Entry O=S(=O)(NCCNc1nccc(-c2c(-c3cccc(O)c3)nc3occn23)n1)c1ccc(C(F)(F)F)cc1 : reported growth = ?
102

Entry Clc1ccc(-c2ccc(CNCC3CCNCC3)o2)c(-c2ccccc2)c1 : reported growth = ?
-75.6

Entry O=C(N/N=C/c1ccc(Oc2ccccc2)cc1)c1cnn2c1NC(c1ccccc1)C2 (configuration not stated) : reported growth = ?
71.8

Entry CN[C@@H](C)C(=O)N[C@H]1CCS[C@H]2CC(C)(C)[C@@H](C(=O)N[C@H]3c4ccccc4C[C@H]3OCC#CC#CCO[C@@H]3Cc4ccccc4[C@@H]3NC(=O)[C@H]3N4C(=O)[C@@H](NC(=O)[C@H](C)NC)CCS[C@H]4CC3(C)C)N2C1=O : reported growth = ?
97.8

Entry Nc1c(C(=O)Nc2cccc3cnccc23)sc2nc3c(cc12)C(=O)CCC3 : reported growth = ?
89.2

Entry N/C(=N\C(N)=N\c1nc2ccccc2s1)c1cccc(Cl)c1 : reported growth = ?
38.5

Entry COc1ccc(/C=C/c2nc(Nc3ccc(Cl)cc3)c3ccccc3n2)cc1 : reported growth = ?
38.5

Entry Cc1c(C(=O)NCCC(=O)NO)sc2ncnc(Nc3ccc(NC(=O)Nc4cccc(C(F)(F)F)c4)cc3)c12 : reported growth = ?
100

Entry O=Cc1cc2ccccc2nc1Oc1ccc(C(F)(F)F)cc1 : reported growth = ?
70.5

Entry O=C(Nc1cccc(C(=O)N2CCc3ccc(Cl)cc32)c1)c1ccco1 : reported growth = ?
49.6

Entry COc1ccccc1/C=C1\Oc2cc(OCCN3CCCC3)ccc2C1=O : reported growth = ?
88.8

Entry O=[N+]([O-])CC(c1ccccc1)c1c[nH]c2ccccc12 (configuration not stated) : reported growth = ?
52.8

Origin of values: PubChem BioAssay (NCI)
